Ref: PubChem BioAssay AID1159580

# assayText: chemical genetic growth profiling, strain panel (AID 1159580);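 further: tested at 20 µM; growth read once vehicle control cultures reached saturation at 30 °C; 1 = growth at the plate median or of vehicle wells; lower values mean less growth of the strain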
# conditionContext: S. cerevisiae deletion strains, growth OD, locus YOR083W, strain WHI5 (second series), stronger effect = lower value
Among all 5,500 compounds or so, about 2,000 (36%) were called active. About 18% were inconclusive and are not listed. This is one part of the list.
quantity: normalized growth
API doc: respond with a numeric literal and nothing else, no unit.

[in] Which normalized growth value is on record for OCc1cnc[nH]1 ?
[out] 0.989

[in] Now consider O=c1[nH]oc2c1CCNC2 .
[out] 1

[in] Item: COC(=O)C1C2CC3c4[nH]c5cc(OC)ccc5c4CCN3CC2CC(OC(=O)c2cc(OC)c(OC)c(OC)c2)C1OC (centres undefined)
[out] 0.934

[in] Continue with COc1nc(C)nc(Cl)c1NC1=NCCN1
[out] 1.01

====

Could you please report measured normalized growth for the items listed next?
# assayText: chemical genetic growth profiling, strain panel (AID 1159580);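 further: tested at 20 µM; growth read once vehicle control cultures reached saturation at 30 °C; 1 = growth at the plate median or of vehicle wells; lower values mean less growth of the strain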
# conditionContext: S. cerevisiae deletion strains, growth OD, locus YOR144C, strain elg1, stronger effect = lower value
Hit rate of the full screen: of about 5,500 compounds, about 2,000 (36%) were called active. About 18% were inconclusive and are not listed. The list shows a part of the results.
Write no unit; give the number alone.

[in] Reported normalized growth, molecule Cn1c(=O)c2[nH]cnc2n(C)c1=O : ____
[out] 0.981

[in] Input C=C1C(C)C2C(Cc3ccccc3)NC(=O)C23OC(=O)/C=C/C(O)CCCC(C)C/C=C/C3C1O (configuration not stated)
[out] 1

[in] And what about the molecule CC(C)C(=O)Nc1ccc([N+](=O)[O-])c(C(F)(F)F)c1 ?
[out] 0.966

[in] // query: CCC(C)(C)C(=O)O[C@H]1C[C@@H](C)C=C2C=C[C@H](C)[C@H](CC[C@@H]3C[C@@H](O)CC(=O)O3)[C@H]21
[out] 1.03

[in] What would you report for NC(=O)c1cccc(N)c1 ?
[out] 0.992

[in] Input CC(=O)Oc1c(C)cccc1C(=O)O
[out] 1.02

[in] Another molecule to check: COC(=O)C1=CCCN(C)C1
[out] 0.997

[in] Note, next up: CC[C@H](C)C(=O)O[C@H]1C[C@@H](C)C=C2C=C[C@H](C)[C@H](CC[C@@H]3C[C@@H](O)CC(=O)O3)[C@H]21
[out] 0.993

[in] Do the same for C=C1C(=O)O[C@@H]2C[C@@]3(C)CCC[C@H](C)C3=C[C@H]12 please
[out] 0.927

[in] And then Nc1ccc(N=Nc2ccccc2)c(N)n1 , what is it?
[out] 1.01

[in] Next record, please: CC[C@H](C)C(=O)O[C@H]1CCC=C2C=C[C@H](C)C(CCC3C[C@@H](O)CC(=O)O3)[C@H]21 (some centres not stated)
[out] 0.977

[in] Now consider COc1c(OC)c2occc2c2oc(=O)ccc12 .
[out] 0.954

[in] Further, for CC(C(=O)O)c1ccc(C(=O)c2cccs2)cc1 (configuration not stated) ?
[out] 1.02

[in] Same again, this time with C#CCCCCCCCCCCCC(O)CC(O)CO (configuration not stated)
[out] 1.01

[in] Note, next up: CC(C)C(C)/C=C/C(C)[C@H]1CCC2C3=CCC4CC(=O)CC[C@]4(C)C3CC[C@@]21C (some centres not stated)
[out] 1.01

[in] Please answer likewise for COC(=O)[C@@H]1OC(=O)[C@H]2O[C@@]23[C@@]1(C)CCC1[C@@]2(C)CCC(=O)C(C)(C)C2C[C@@H](OC(C)=O)[C@]13C (some centres not stated)
[out] 1

[in] Next entry: Nc1ccn(C2O[C@H](CO)[C@@H](O)[C@@H]2O)c(=O)n1 (some centres not stated)
[out] 1

[in] Also need Oc1ccc(Cl)cc1Cc1cc(Cl)ccc1O , thanks.
[out] 0.0576

[in] Follow-up entry: CC[N+](CC)(CC)CCOc1cccc(OCC[N+](CC)(CC)CC)c1OCC[N+](CC)(CC)CC
[out] 1.01

[in] Try the molecule CO[C@@]1(NC(=O)CSCC#N)C(=O)N2C(C(=O)O)=C(CSc3nnnn3C)CSC21 (some centres not stated)
[out] 1.02

[in] Also, Nc1nc2ncc(=O)[nH]c2c(=O)[nH]1 please.
[out] 0.989

[in] One more molecule: CC1(C)C2(Cl)C(Cl)C(Cl)C(Cl)(C(Cl)Cl)C1(Cl)C2Cl (configuration not stated)
[out] 0.981
